Where do these numbers come from? They come from patent US20120115877A1.

System: SW-620
assay_comment: NCI-60 screen, Colon Cancer
Type: cell-based, human
reported_conditions: 10 μM
Provide the recorded Percent Growth for the entries that follow.
Quick note: give the figure in %, leave out the unit.

[ask] Give the measured Percent Growth of N=C(N)NCCCCC(=O)Nc1cc(C(F)(F)F)cc(NC(=O)Nc2ccc(NC(=O)Nc3cc(C(F)(F)F)cc(NC(=O)CCCCNC(=N)N)c3OC3CCNC3)cc2)c1OC1CCNC1 (stereo not shown) [Compound B] .
[reply] 69.71

[ask] Give the measured Percent Growth of NCCCc1cccc(-c2ccc3oc4ccc(-c5cccc(CCCN)c5)cc4c3c2)c1 [Compound G] .
[reply] −7.997

[ask] Give the measured Percent Growth of NCCSc1cc(SCCN)c(C(F)(F)F)cc1NC(=O)c1cc(C(=O)Nc2cc(C(F)(F)F)c(SCCN)cc2SCCN)ncn1 [Compound F] .
[reply] 18.57

[ask] Give the measured Percent Growth of NCCCc1cccc(-c2ccc3sc4ccc(-c5cccc(CCCN)c5)cc4c3c2)c1 [Compound D] .
[reply] 15.48

[ask] Give the measured Percent Growth of NCCc1cc(Br)cc(C#Cc2cccc(C#Cc3cc(Br)cc(CCN)c3)c2)c1 [Compound A] .
[reply] −73.58

[ask] Give the measured Percent Growth of c1cc(-c2ccc3sc4ccc(-c5ccnc(N6CCNCC6)c5)cc4c3c2)cc(N2CCNCC2)n1 [Compound E] .
[reply] −87.3

[ask] Give the measured Percent Growth of N=C(N)NCCCCC(=O)Nc1cc(C(F)(F)F)cc(NC(=O)c2cc(C(=O)Nc3cc(C(F)(F)F)cc(NC(=O)CCCCNC(=N)N)c3SCCN)ncn2)c1SCCN [Compound C] .
[reply] 34.39

---

Tested on: HOP-62
assay_comment: NCI-60 screen, Non-Small Cell Lung Cancer
Format: cell-based, human
reported_conditions: 10 μM
measurement_kind: Percent Growth
Write the numeric value and follow it with the unit.

[ask] Give the measured Percent Growth of c1cc(-c2ccc3sc4ccc(-c5ccnc(N6CCNCC6)c5)cc4c3c2)cc(N2CCNCC2)n1 .
[reply] −80.18%

[ask] Give the measured Percent Growth of NCCCc1cccc(-c2ccc3oc4ccc(-c5cccc(CCCN)c5)cc4c3c2)c1 .
[reply] 72.69%

[ask] Give the measured Percent Growth of N=C(N)NCCCCC(=O)Nc1cc(C(F)(F)F)cc(NC(=O)c2cc(C(=O)Nc3cc(C(F)(F)F)cc(NC(=O)CCCCNC(=N)N)c3SCCN)ncn2)c1SCCN .
[reply] 37.78%

[ask] Give the measured Percent Growth of NCCSc1cc(SCCN)c(C(F)(F)F)cc1NC(=O)c1cc(C(=O)Nc2cc(C(F)(F)F)c(SCCN)cc2SCCN)ncn1 .
[reply] 29.35%

[ask] Give the measured Percent Growth of NCCc1cc(Br)cc(C#Cc2cccc(C#Cc3cc(Br)cc(CCN)c3)c2)c1 .
[reply] 21.99%

[ask] Give the measured Percent Growth of NCCCc1cccc(-c2ccc3sc4ccc(-c5cccc(CCCN)c5)cc4c3c2)c1 .
[reply] 90.64%

[ask] Give the measured Percent Growth of N=C(N)NCCCCC(=O)Nc1cc(C(F)(F)F)cc(NC(=O)Nc2ccc(NC(=O)Nc3cc(C(F)(F)F)cc(NC(=O)CCCCNC(=N)N)c3OC3CCNC3)cc2)c1OC1CCNC1 (stereo not shown) .
[reply] 23.47%

---

Provide the recorded Percent Growth for the entries that follow.
Test system: HL-60(TB)
assay_comment: NCI-60 screen, Leukemia
Type: cell-based, human
reported_conditions: 10 μM

[ask] Give the measured Percent Growth of NCCc1cc(Br)cc(C#Cc2cccc(C#Cc3cc(Br)cc(CCN)c3)c2)c1 [Compound A] .
[reply] 6.88%

[ask] Give the measured Percent Growth of N=C(N)NCCCCC(=O)Nc1cc(C(F)(F)F)cc(NC(=O)c2cc(C(=O)Nc3cc(C(F)(F)F)cc(NC(=O)CCCCNC(=N)N)c3SCCN)ncn2)c1SCCN [Compound C] .
[reply] 30.11%

[ask] Give the measured Percent Growth of NCCCc1cccc(-c2ccc3oc4ccc(-c5cccc(CCCN)c5)cc4c3c2)c1 [Compound G] .
[reply] 46.37%

[ask] Give the measured Percent Growth of NCCSc1cc(SCCN)c(C(F)(F)F)cc1NC(=O)c1cc(C(=O)Nc2cc(C(F)(F)F)c(SCCN)cc2SCCN)ncn1 [Compound F] .
[reply] 82.57%

[ask] Give the measured Percent Growth of N=C(N)NCCCCC(=O)Nc1cc(C(F)(F)F)cc(NC(=O)Nc2ccc(NC(=O)Nc3cc(C(F)(F)F)cc(NC(=O)CCCCNC(=N)N)c3OC3CCNC3)cc2)c1OC1CCNC1 (stereo not shown) [Compound B] .
[reply] 58.59%

[ask] Give the measured Percent Growth of c1cc(-c2ccc3sc4ccc(-c5ccnc(N6CCNCC6)c5)cc4c3c2)cc(N2CCNCC2)n1 [Compound E] .
[reply] −24.59%

[ask] Give the measured Percent Growth of NCCCc1cccc(-c2ccc3sc4ccc(-c5cccc(CCCN)c5)cc4c3c2)c1 [Compound D] .
[reply] 68.33%

---

Tested on: SNB-75
assay_comment: NCI-60 screen, CNS Cancer
Assay type: cell-based, human
reported_conditions: 10 μM
measurement_kind: Percent Growth (%)
Quick note: give the figure in %, leave out the unit.

[ask] Give the measured Percent Growth of N=C(N)NCCCCC(=O)Nc1cc(C(F)(F)F)cc(NC(=O)Nc2ccc(NC(=O)Nc3cc(C(F)(F)F)cc(NC(=O)CCCCNC(=N)N)c3OC3CCNC3)cc2)c1OC1CCNC1 (stereo not shown) .
[reply] 19.48

[ask] Give the measured Percent Growth of NCCCc1cccc(-c2ccc3oc4ccc(-c5cccc(CCCN)c5)cc4c3c2)c1 .
[reply] 66.47

[ask] Give the measured Percent Growth of NCCc1cc(Br)cc(C#Cc2cccc(C#Cc3cc(Br)cc(CCN)c3)c2)c1 .
[reply] −2.087

[ask] Give the measured Percent Growth of NCCCc1cccc(-c2ccc3sc4ccc(-c5cccc(CCCN)c5)cc4c3c2)c1 .
[reply] 71.15

[ask] Give the measured Percent Growth of NCCSc1cc(SCCN)c(C(F)(F)F)cc1NC(=O)c1cc(C(=O)Nc2cc(C(F)(F)F)c(SCCN)cc2SCCN)ncn1 .
[reply] −20.24

[ask] Give the measured Percent Growth of N=C(N)NCCCCC(=O)Nc1cc(C(F)(F)F)cc(NC(=O)c2cc(C(=O)Nc3cc(C(F)(F)F)cc(NC(=O)CCCCNC(=N)N)c3SCCN)ncn2)c1SCCN .
[reply] 22.47

[ask] Give the measured Percent Growth of c1cc(-c2ccc3sc4ccc(-c5ccnc(N6CCNCC6)c5)cc4c3c2)cc(N2CCNCC2)n1 .
[reply] −94.79

---

System: MDA-MB-31/ATCC
assay_comment: NCI-60 screen, Breast Cancer
Format: cell-based, human
reported_conditions: 10 μM, MDA-MB-231/ATCC
measurement_kind: Percent Growth (%)
Quick note: give the figure in %, leave out the unit.

[ask] Give the measured Percent Growth of c1cc(-c2ccc3sc4ccc(-c5ccnc(N6CCNCC6)c5)cc4c3c2)cc(N2CCNCC2)n1 .
[reply] −41.26

[ask] Give the measured Percent Growth of NCCCc1cccc(-c2ccc3sc4ccc(-c5cccc(CCCN)c5)cc4c3c2)c1 .
[reply] 60.18

[ask] Give the measured Percent Growth of N=C(N)NCCCCC(=O)Nc1cc(C(F)(F)F)cc(NC(=O)c2cc(C(=O)Nc3cc(C(F)(F)F)cc(NC(=O)CCCCNC(=N)N)c3SCCN)ncn2)c1SCCN .
[reply] 81.52

[ask] Give the measured Percent Growth of NCCSc1cc(SCCN)c(C(F)(F)F)cc1NC(=O)c1cc(C(=O)Nc2cc(C(F)(F)F)c(SCCN)cc2SCCN)ncn1 .
[reply] 18.87

[ask] Give the measured Percent Growth of NCCCc1cccc(-c2ccc3oc4ccc(-c5cccc(CCCN)c5)cc4c3c2)c1 .
[reply] 37.19

[ask] Give the measured Percent Growth of N=C(N)NCCCCC(=O)Nc1cc(C(F)(F)F)cc(NC(=O)Nc2ccc(NC(=O)Nc3cc(C(F)(F)F)cc(NC(=O)CCCCNC(=N)N)c3OC3CCNC3)cc2)c1OC1CCNC1 (stereo not shown) .
[reply] 73.02

[ask] Give the measured Percent Growth of NCCc1cc(Br)cc(C#Cc2cccc(C#Cc3cc(Br)cc(CCN)c3)c2)c1 .
[reply] 4.31

---

Provide the recorded Percent Growth for the entries that follow.
Test system: IGROV1
assay_comment: NCI-60 screen, Ovarian Cancer
Type: cell-based, human
reported_conditions: 10 μM
Quick note: give the figure in %, leave out the unit.

[ask] Give the measured Percent Growth of NCCc1cc(Br)cc(C#Cc2cccc(C#Cc3cc(Br)cc(CCN)c3)c2)c1 [Compound A] .
[reply] −4.832

[ask] Give the measured Percent Growth of NCCCc1cccc(-c2ccc3oc4ccc(-c5cccc(CCCN)c5)cc4c3c2)c1 [Compound G] .
[reply] 42.2

[ask] Give the measured Percent Growth of NCCSc1cc(SCCN)c(C(F)(F)F)cc1NC(=O)c1cc(C(=O)Nc2cc(C(F)(F)F)c(SCCN)cc2SCCN)ncn1 [Compound F] .
[reply] 4.7

[ask] Give the measured Percent Growth of N=C(N)NCCCCC(=O)Nc1cc(C(F)(F)F)cc(NC(=O)c2cc(C(=O)Nc3cc(C(F)(F)F)cc(NC(=O)CCCCNC(=N)N)c3SCCN)ncn2)c1SCCN [Compound C] .
[reply] 51.71

[ask] Give the measured Percent Growth of N=C(N)NCCCCC(=O)Nc1cc(C(F)(F)F)cc(NC(=O)Nc2ccc(NC(=O)Nc3cc(C(F)(F)F)cc(NC(=O)CCCCNC(=N)N)c3OC3CCNC3)cc2)c1OC1CCNC1 (stereo not shown) [Compound B] .
[reply] 82.4

[ask] Give the measured Percent Growth of c1cc(-c2ccc3sc4ccc(-c5ccnc(N6CCNCC6)c5)cc4c3c2)cc(N2CCNCC2)n1 [Compound E] .
[reply] −43.57

[ask] Give the measured Percent Growth of NCCCc1cccc(-c2ccc3sc4ccc(-c5cccc(CCCN)c5)cc4c3c2)c1 [Compound D] .
[reply] 80.28
